Target: co-condensation of RNA, G3BP1, and caprin 1 (Homo sapiens, UniProt Q13283)
Sequence (Q13283 whole entry): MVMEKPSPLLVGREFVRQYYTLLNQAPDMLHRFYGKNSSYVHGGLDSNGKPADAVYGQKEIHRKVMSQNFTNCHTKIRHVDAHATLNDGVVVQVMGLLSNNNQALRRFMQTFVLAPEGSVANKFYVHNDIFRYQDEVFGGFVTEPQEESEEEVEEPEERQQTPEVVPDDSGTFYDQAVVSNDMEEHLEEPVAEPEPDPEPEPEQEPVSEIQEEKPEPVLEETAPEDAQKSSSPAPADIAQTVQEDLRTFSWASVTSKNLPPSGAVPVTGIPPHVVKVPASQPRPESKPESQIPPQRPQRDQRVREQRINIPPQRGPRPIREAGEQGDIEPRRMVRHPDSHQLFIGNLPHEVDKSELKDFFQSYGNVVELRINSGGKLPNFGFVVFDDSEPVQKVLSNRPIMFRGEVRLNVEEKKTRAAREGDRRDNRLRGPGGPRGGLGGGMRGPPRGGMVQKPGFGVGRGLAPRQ
Sequence (Q13283 whole entry): as above
pIC50: −log10 of the molar value.
quantity_name: pIC50

molecule: CC(NC(=O)C(NC(=O)C(NC(=O)CCC(C)(C)C)C(C)(C)O)C(C)c1ccccc1)C(=O)N1CCCC1c1ccccc1 (centres unmarked)
result_value: 5.46

molecule: COCCC(NC(=O)C(C)NC(=O)C(NC(=O)C(NC(=O)C(F)CC(C)(C)C)C(C)(C)O)C(C)c1ccccc1)C(=O)N(C)Cc1ccccc1 (centres unmarked)
result_value: 5.35

====

Molecular target: full-length 6x-His-tagged human G3BP1 (Homo sapiens, UniProt Q13283)
Construct: 10 nM full-length 6x-His-tagged human G3BP1; made in house; host or cells: E. coli BL21 (DE3)
Sequence (Q13283 whole entry): as above
Test: Peptide displacement assay (Pep-FRET)
Format: binding
Details: result in words, Fig. 1 C
quantity_name: displacement of FAM-labeled FGDF peptide from G3BP1

molecule: COCCC(NC(=O)C(C)NC(=O)C(NC(=O)C(NC(=O)C(F)CC(C)(C)C)C(C)(C)O)C(C)c1ccccc1)C(=O)N(C)Cc1ccccc1 (stereo not shown) [G3Ia]
result_value: potently displaced
//
molecule: CC(NC(=O)C(NC(=O)C(NC(=O)CCC(C)(C)C)C(C)(C)O)C(C)c1ccccc1)C(=O)N1CCCC1c1ccccc1 (stereo not shown) [G3Ib′]
result_value: little effect
//
molecule: CC(NC(=O)C(NC(=O)C(NC(=O)CCC(C)(C)C)C(C)(C)O)C(C)c1ccccc1)C(=O)N1CCCC1c1ccccc1 (stereo not shown) [G3Ib]
result_value: potently displaced
//
molecule: COCCC(NC(=O)C(C)NC(=O)C(NC(=O)C(NC(=O)C(F)CC(C)(C)C)C(C)(C)O)C(C)c1ccccc1)C(=O)N(C)Cc1ccccc1 (stereo not shown) [G3Ia′]
result_value: little effect

====

pIC50: −log10 of the molar value.
Entries below carry reported pIC50 on full-length 6x-His-tagged human G3BP1 (Homo sapiens, UniProt Q13283).

molecule: COCCC(NC(=O)C(C)NC(=O)C(NC(=O)C(NC(=O)C(F)CC(C)(C)C)C(C)(C)O)C(C)c1ccccc1)C(=O)N(C)Cc1ccccc1 (stereo not shown) [G3Ia′]
limit_operator: <
pIC50: 4.30
//
molecule: CC(NC(=O)C(NC(=O)C(NC(=O)CCC(C)(C)C)C(C)(C)O)C(C)c1ccccc1)C(=O)N1CCCC1c1ccccc1 (stereo not shown) [G3Ib]
limit_operator: =
pIC50: 6.15
//
molecule: CC(NC(=O)C(NC(=O)C(NC(=O)CCC(C)(C)C)C(C)(C)O)C(C)c1ccccc1)C(=O)N1CCCC1c1ccccc1 (stereo not shown) [G3Ib′]
limit_operator: <
pIC50: 4.30
//
molecule: COCCC(NC(=O)C(C)NC(=O)C(NC(=O)C(NC(=O)C(F)CC(C)(C)C)C(C)(C)O)C(C)c1ccccc1)C(=O)N(C)Cc1ccccc1 (stereo not shown) [G3Ia]
limit_operator: =
pIC50: 5.82

====

Biological target: NTF2L domain of G3BP1 (Homo sapiens, UniProt Q13283)
Listing of entries alongside the reported Kd.
quantity_name: Kd (µM)

compound: COCCC(NC(=O)C(C)NC(=O)C(NC(=O)C(NC(=O)C(F)CC(C)(C)C)C(C)(C)O)C(C)c1ccccc1)C(=O)N(C)Cc1ccccc1 (stereo not shown) [G3Ia′]
result_value: 75.5
--
compound: CC(NC(=O)C(NC(=O)C(NC(=O)CCC(C)(C)C)C(C)(C)O)C(C)c1ccccc1)C(=O)N1CCCC1c1ccccc1 (stereo not shown) [G3Ib]
result_value: 0.15
--
compound: COCCC(NC(=O)C(C)NC(=O)C(NC(=O)C(NC(=O)C(F)CC(C)(C)C)C(C)(C)O)C(C)c1ccccc1)C(=O)N(C)Cc1ccccc1 (stereo not shown) [G3Ia]
result_value: 0.54
--
compound: CC(NC(=O)C(NC(=O)C(NC(=O)CCC(C)(C)C)C(C)(C)O)C(C)c1ccccc1)C(=O)N1CCCC1c1ccccc1 (stereo not shown) [G3Ib′]
result_value: 44.5
